TARGET_DESC: UniProt:P15207
Sequence (whole entry): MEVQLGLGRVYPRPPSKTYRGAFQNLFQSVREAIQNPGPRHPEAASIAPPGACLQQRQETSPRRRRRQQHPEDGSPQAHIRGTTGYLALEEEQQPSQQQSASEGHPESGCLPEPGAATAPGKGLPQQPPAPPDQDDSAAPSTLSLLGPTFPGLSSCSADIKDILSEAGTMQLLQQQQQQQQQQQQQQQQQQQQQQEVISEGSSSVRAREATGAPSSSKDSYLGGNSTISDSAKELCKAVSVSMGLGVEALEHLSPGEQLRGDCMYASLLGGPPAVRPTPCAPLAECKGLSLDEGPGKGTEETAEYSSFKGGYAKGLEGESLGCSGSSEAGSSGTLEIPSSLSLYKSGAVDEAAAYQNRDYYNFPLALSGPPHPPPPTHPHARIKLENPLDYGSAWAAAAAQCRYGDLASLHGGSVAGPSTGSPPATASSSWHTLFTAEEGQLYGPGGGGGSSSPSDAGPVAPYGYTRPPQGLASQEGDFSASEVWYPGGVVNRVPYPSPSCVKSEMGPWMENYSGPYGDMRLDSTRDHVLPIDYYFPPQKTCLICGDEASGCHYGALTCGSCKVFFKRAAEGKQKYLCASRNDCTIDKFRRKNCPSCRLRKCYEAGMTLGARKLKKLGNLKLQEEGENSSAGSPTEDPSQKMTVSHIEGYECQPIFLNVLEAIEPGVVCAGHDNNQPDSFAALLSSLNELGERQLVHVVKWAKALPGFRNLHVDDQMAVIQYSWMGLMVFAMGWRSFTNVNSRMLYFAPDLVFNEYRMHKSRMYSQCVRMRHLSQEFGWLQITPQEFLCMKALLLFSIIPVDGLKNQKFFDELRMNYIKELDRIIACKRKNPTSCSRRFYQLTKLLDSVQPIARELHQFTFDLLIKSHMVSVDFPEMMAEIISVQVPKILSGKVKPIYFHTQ
EXPERIMENT: Binding to rat prostate Androgen receptor compared to dihydrotestosterone
PARTICULARS: Prostate gland
RESULT_TYPE: Competition factor

> print(dat)
                                   compound  assay.result
1  COC(=O)[C@@H]1CC2=CC(=O)CCC2(C)C2CCC3(C)C(C21)[C@@H]1C[C@@H]1C31CCC(=O)O1 (some centres undefined)           112
2  CCOC(=O)[C@@H]1CC2=CC(=O)[C@@H]3C[C@@H]3C2(C)C2CCC3(C)C(C21)[C@@H]1C[C@@H]1C31CCC(=O)O1 (some centres undefined)            28
3  CCCOC(=O)[C@@H]1CC2=CC(=O)[C@@H]3C[C@@H]3C2(C)C2CCC3(C)C(C21)[C@@H]1C[C@@H]1C31CCC(=O)O1 (some centres undefined)            33
4  COC(=O)[C@@H]1CC2=CC(=O)CCC2(C)C2CCC3(C)C(CCC34CCC(=O)O4)C21 (some centres undefined)           142

src = ChEMBL document CHEMBL1125151
